target: Biotinylated CoV2 Spike ECD PreS-AVI protein (SARS-CoV-2, UniProt P0DTC2 14-1208); assay: Octet binning; competitor Std-A
Listed here: items and their measured binning response.
Outcome measure: binning response

| Binder | Obs value |
| --- | --- |
| 10B8 VHH-Fc (Fc fusion) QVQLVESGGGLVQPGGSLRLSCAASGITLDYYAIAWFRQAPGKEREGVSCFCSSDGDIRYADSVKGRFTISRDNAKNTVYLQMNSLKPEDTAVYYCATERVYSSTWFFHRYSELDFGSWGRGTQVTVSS | 0.39 |
| 7A9 VHH-Fc (Fc fusion) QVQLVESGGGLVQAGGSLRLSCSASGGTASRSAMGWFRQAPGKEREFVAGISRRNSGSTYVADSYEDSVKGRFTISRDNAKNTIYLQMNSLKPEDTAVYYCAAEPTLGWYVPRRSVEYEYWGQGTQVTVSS | 0.34 |
| 15H7 VHH-Fc (Fc fusion) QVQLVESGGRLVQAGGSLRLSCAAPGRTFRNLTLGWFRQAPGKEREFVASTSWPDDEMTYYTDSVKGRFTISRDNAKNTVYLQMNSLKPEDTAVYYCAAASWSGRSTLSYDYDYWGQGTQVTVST | 0.36 |
| 19E10 VHH-Fc (Fc fusion) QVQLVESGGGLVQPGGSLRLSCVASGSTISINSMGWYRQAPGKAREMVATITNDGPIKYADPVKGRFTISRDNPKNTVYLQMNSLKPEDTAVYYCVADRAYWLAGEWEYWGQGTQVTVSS | 0.26 |
